- TARGET UNDER TEST: Torsin-1A-interacting protein 1 (Homo sapiens) (UniProt Q5JTV8)
- Sequence (Q5JTV8 whole entry, looked up): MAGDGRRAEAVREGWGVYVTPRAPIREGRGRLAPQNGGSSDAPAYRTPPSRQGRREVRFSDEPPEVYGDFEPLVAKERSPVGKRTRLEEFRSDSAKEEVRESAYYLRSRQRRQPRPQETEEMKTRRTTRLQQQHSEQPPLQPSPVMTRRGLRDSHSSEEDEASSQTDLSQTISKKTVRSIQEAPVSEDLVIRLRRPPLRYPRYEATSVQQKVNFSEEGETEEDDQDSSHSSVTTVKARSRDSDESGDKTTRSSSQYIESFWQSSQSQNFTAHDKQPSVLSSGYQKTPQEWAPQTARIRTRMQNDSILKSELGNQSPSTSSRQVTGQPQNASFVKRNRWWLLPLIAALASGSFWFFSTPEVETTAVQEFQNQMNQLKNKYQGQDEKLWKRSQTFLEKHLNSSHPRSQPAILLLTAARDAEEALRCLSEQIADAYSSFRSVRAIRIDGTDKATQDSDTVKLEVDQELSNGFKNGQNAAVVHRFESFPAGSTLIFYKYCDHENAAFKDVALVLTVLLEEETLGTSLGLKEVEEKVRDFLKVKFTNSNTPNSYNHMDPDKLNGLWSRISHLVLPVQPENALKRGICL
- ASSAY OVERVIEW: LAP1 binders from COS7 cell lysate, primary screen, small-molecule microarray, 635/667 nm fluorescence (AID 1116)
- SETUP CONDITIONS: COS7-hLAP1 lysate binding, 635 nm fluorescence, higher = more signal
Recorded measurements of composite z-score, one per entry
QUANTITY: composite z-score

compound=CCCN1C(=O)[C@]2(COC(c3ccc(OCCCO)cc3)=N2)Cc2ccccc21 recorded_measurement=0.39
compound=COc1cc2c(cc1OC)CN(C(=O)[C@@H]1[C@H]3C(=O)O[C@H](c4ccccc4)[C@H](c4ccccc4)N3[C@H](c3ccccc3OCCO)[C@@]13C(=O)Nc1ccc(C#CCNC(N)=O)cc13)CC2 recorded_measurement=1.29
compound=Cc1ccc(S[C@]2(C(=O)NCc3ccccc3)CC(=O)N(Cc3ccccc3)[C@@H]2c2ccc(CO)cc2)cc1 recorded_measurement=1.2
compound="Cc1ccccc1C(O)C1C=CC2C(=O)N(C)C(=O)C2N1Nc1ccccc1 (centres undefined)" recorded_measurement=1.91

---

- TARGET UNDER TEST: Luciferin 4-monooxygenase (Photinus pyralis) (UniProt P08659)
- Sequence (P08659 whole entry, looked up): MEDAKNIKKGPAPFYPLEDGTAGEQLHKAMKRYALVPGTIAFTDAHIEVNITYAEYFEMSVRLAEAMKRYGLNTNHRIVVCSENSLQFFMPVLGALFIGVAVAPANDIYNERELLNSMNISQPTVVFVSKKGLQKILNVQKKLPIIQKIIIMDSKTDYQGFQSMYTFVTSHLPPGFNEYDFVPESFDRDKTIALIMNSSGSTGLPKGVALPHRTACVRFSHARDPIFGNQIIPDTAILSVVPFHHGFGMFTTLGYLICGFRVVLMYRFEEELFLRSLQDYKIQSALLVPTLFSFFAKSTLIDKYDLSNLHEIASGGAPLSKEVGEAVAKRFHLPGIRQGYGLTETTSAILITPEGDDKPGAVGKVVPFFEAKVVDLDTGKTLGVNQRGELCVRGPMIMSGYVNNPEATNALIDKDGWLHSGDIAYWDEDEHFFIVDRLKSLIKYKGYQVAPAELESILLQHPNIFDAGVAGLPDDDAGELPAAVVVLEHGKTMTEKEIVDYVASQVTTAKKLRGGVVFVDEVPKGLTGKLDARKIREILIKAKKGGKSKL
- ASSAY OVERVIEW: firefly luciferase enzyme inhibitors, primary screen, biochemical, luminescence, purified enzyme, 2006 set (AID 1141);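 further: cell-free assay with purified firefly luciferase at 100 ng per well in PBS; test concentration not given here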
- SETUP CONDITIONS: SteadyGlo luminescence, 30 min, higher = more signal, called active from +8 up or from −8 down
QUANTITY: z-score

compound=COCCOC(=O)N1C(=O)[C@@]2(c3cc(C#CCCO)ccc31)[C@H](c1ccc(O)cc1)N1[C@H](c3ccccc3)[C@H](c3ccccc3)OC(=O)[C@H]1[C@@H]2C(N)=O recorded_measurement=0.028
compound=CCOC(=O)C[C@H]1[C@H](OC(=O)Cc2ccc3c(c2)OCO3)[C@@H](NC(=O)c2ccc(-c3ccccc3)cc2)c2cc(OCCCO)ccc2N1C(=O)c1ccccc1 recorded_measurement=-1.16
compound="O=C1OCCC=C[C@H]2OC34C=CCN(Cc5ccccc5)C(=O)[C@H]3N(CCCO)C(=O)[C@@H]4C12 (some centres undefined)" recorded_measurement=0.0952
compound=COCCOC(=O)N1C(=O)[C@@]2(c3cc(C#CCCO)ccc31)[C@H](c1ccccc1OCCO)N1[C@H](c3ccccc3)[C@H](c3ccccc3)OC(=O)[C@H]1[C@@H]2C(=O)N1CCN(c2ncccn2)CC1 recorded_measurement=-0.198
compound=CCCNC(=O)[C@@]1(c2ccc([N+](=O)[O-])cc2)CC(=O)N(CC23CC4CC(CC(C4)C2)C3)[C@@H]1c1ccc(CO)cc1 recorded_measurement=0.494
compound=CC(C)C[C@@H]1NC(=O)[C@H]2C[C@@H](C(=O)NCCCCCNC(=O)CS)[C@@H](c3cccc(OCCO)c3)N2C1=O recorded_measurement=-1.15
compound="O=C1C2C=CC(C(O)c3ccc(B(O)O)cc3)N(Nc3ccccc3)C2C(=O)N1c1ccccc1 (centres undefined)" recorded_measurement=-0.331
compound=N[C@@H](Cc1ccccc1)Cn1cc(-c2ccccc2)nn1 recorded_measurement=-1.32
compound="Cc1cc(C)cc(N2C(=O)CS(=O)(=O)C2c2cccc([N+](=O)[O-])c2)c1 (centres undefined)" recorded_measurement=-0.273
compound="CCOC(=O)C1=CCC(C(C)(C)C)N(S(=O)(=O)c2ccc(C)cc2)C1 (centres undefined)" recorded_measurement=0.916
compound=COCCOC(=O)N1C(=O)[C@@]2(c3cc(C#Cc4ccc(OC)cc4)ccc31)[C@H](C(=O)N1CCN(c3ncccn3)CC1)[C@H]1C(=O)O[C@H](c3ccccc3)[C@H](c3ccccc3)N1[C@@H]2c1ccc(O)cc1 recorded_measurement=-0.938
compound=O=C1O[C@@H](c2ccccc2)[C@@H](c2ccccc2)N2[C@@H](c3ccc(OCCO)cc3)[C@]3(C(=O)Nc4ccc(C#CC5=CCCCC5)cc43)[C@@H](C(=O)O)[C@H]12 recorded_measurement=-6.59
compound=C=C(CCCC)C(=O)CC[C@H](OC(=O)c1cccnc1)c1cccc(OCCO)c1 recorded_measurement=-1.2
compound=CC(C)C(=C=CC[C@H](O)c1cccc(OCCO)c1)C[C@H](O)COCc1ccccc1 recorded_measurement=0.209
